Listed below: Ki values for each entry.
biological target: UniProt:P28223; test: Displacement of [3H]ketanserin from human 5HT2A receptor expressed in HEK293 cell membranes measured after 30 mins; format: cell-based
Sequence (P28223 whole entry): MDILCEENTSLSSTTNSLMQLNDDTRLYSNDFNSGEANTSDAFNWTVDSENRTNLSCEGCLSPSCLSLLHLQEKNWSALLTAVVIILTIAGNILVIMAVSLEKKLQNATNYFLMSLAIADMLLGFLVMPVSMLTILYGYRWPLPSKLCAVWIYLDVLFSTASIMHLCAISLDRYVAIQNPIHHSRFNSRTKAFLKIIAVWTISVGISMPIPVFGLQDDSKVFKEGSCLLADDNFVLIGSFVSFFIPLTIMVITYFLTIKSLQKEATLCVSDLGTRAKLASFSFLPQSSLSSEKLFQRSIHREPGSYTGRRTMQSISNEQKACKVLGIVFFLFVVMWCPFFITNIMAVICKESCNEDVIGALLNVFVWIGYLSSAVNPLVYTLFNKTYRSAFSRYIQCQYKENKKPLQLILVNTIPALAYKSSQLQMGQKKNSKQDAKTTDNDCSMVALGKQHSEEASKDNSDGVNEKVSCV
Please respond with the number in nM and leave the unit unwritten.

**Q:** Recorded Ki of C1=C(c2c[nH]c3ccccc23)CCN(Cc2ccco2)C1 , please.
**A:** 173

**Q:** Recorded Ki of COc1ccc2[nH]cc(C3=CCN(Cc4cccs4)CC3)c2c1 , please.
**A:** 1890

**Q:** Recorded Ki of C1=C(c2c[nH]c3ccccc23)CCN(Cc2cccs2)C1 , please.
**A:** 171

Others:
**Q:** Recorded Ki of COc1cccc(CN2CC=C(c3c[nH]c4ccccc34)CC2)c1 , please.
**A:** 194

**Q:** Recorded Ki of CCOc1ccc2[nH]cc(C3=CCN(Cc4ccccc4)CC3)c2c1 , please.
**A:** 2100

**Q:** Recorded Ki of C1=C(c2c[nH]c3ccccc23)CCN(Cc2ccccc2)C1 , please.
**A:** 125
